System: Mycobacterium tuberculosis
Assay: Cornell - Phenotypic assay to identify agents that inhibit growth of Mycobacterium tuberculosis
Type: functional
Parameters: scale not given: direction of the effect not stated beside the values
Conditions: 10 mM as filed; unlikely as a test dose
The campaign covered roughly 53,000 compounds. About 900 (1.7%) showed an effect of 50% or more. Shown is part of a subset that was picked to be rich in strong results.
Quick rule for you: Percent Effect at 20% or higher means Yes, lower means No.

The following compounds have reported results that may help.
CCn1nc(NC(=O)Cn2ccc(C(C)=O)n2)c2ccccc21 : No
COc1ccc(NC(=O)Cn2nc(C)c(C(C)=O)c2C)cc1 : Yes
Cc1nc(C)c(C(C)NCc2c(C)nn(C)c2N(C)C)s1 (configuration not stated) : Yes

Q) For this compound, is measured Percent Effect 20% or higher? CC(=O)c1ccn(CC(=O)Nc2nn(CC3CC3)c3ccccc23)n1
A) Yes

Q) For this compound, is measured Percent Effect 20% or higher? Cc1nc(C)c(C(C)NCc2c(C)nn(CC(C)C)c2N(C)C)s1 (configuration not stated)
A) Yes

Q) For this compound, is measured Percent Effect 20% or higher? Cc1nn(CC(C)C)c(N(C)C)c1CNCc1cccnc1N(C)C
A) Yes

----------
Tested on: Mycobacterium tuberculosis
Assay: Cornell - Phenotypic assay to identify agents that inhibit growth of Mycobacterium tuberculosis
Type: functional
Parameters: scale not given: direction of the effect not stated beside the values
Settings: 10 mM as filed; unlikely as a test dose
Out of some 53,000 compounds screened, about 900 (1.7%) showed an effect of 50% or more. This excerpt belongs to a sample that is enriched for strong results.
Task for the reader: assign each of the following compounds its reported Percent Effect.
Numbers only, in %.

Known Percent Effect results, listed for orientation:
CC1CCCN(C(=O)c2ccc(-c3ccco3)o2)C1 (stereo not drawn) : 79.8
CC(C)NC(=O)N1CCN(Cc2ccccn2)CC2(CC(=O)N(C)C2)C1.O=C(O)C(F)(F)F.O=C(O)C(F)(F)F (stereo not drawn) : -0.1639
NCc1ccccc1Sc1ccc(O)cc1.O=C(O)/C=C\C(=O)O : 11.62
CC1CCC(NS(=O)(=O)CC(=O)NC2(C(N)=O)CCCC2)CC1 (stereo not drawn) : -11.11
Cc1cn2c(n1)CCC(NC(=O)CCCn1cncn1)C2 (stereo not drawn) : -12.33
CC(N)Cc1ccccc1Sc1ccc(O)cc1.CC(N)Cc1ccccc1Sc1ccc(O)cc1.O=C(O)C(=O)O (stereo not drawn) : 102.6

Look up Percent Effect for the entries below, preserving their order.
1. CCOC(=O)Cn1c(=O)nc2n1C(=O)N(c1ccccc1)C2
2. COc1cccc(N2CCC(N3C[C@@H](NC(C)=O)[C@H](C(C)C)C3)CC2)c1
3. Cc1cc(-c2cnc(NC3CC3)nc2-c2ccoc2C)on1

A)
1. -0.8928
2. 34.03
3. 6.588

----------
Task for the reader: assign each of the following compounds its reported Percent Effect.
Test system: Mycobacterium tuberculosis
Experiment: Cornell - Phenotypic assay to identify agents that inhibit growth of Mycobacterium tuberculosis
Assay type: functional
Set-up: scale not given: direction of the effect not stated beside the values
Settings: 10 mM as filed; unlikely as a test dose
Out of some 53,000 compounds screened, about 900 (1.7%) showed an effect of 50% or more. What follows is part of a selection rich in strong results, with near analogues and random picks from the rest.
Give bare numbers, in %.

Known Percent Effect results, listed for orientation:
CC(=O)N1CCC[C@@H](NCc2ccc(F)cc2)[C@@H]1c1ccc(C)s1 : 1.669
Cn1cc(N2CCCC(SCc3nc(C4CC4)no3)C2=O)cn1 (stereo not given) : -5.692
O=C1NCCN1C(CNS(=O)(=O)C1CC1)Cc1cccc(F)c1 (stereo not given) : 21.82

Look up Percent Effect for the entries below, preserving their order.
1. Cl.Cl.O=C1NC2(CCNCC2)CC1c1ccncc1 (stereo not given)
2. COc1ccc(Cl)cc1CCNC(=O)NCc1ncnn1C
3. Cc1ccnn1CCC(=O)N1CCCC[C@@]2(C)[C@@H]1CCC(=O)N2C
4. COCCN1C(=O)CC[C@]12CC[C@@H](NC(=O)c1cnccn1)CC2
5. Cc1ccc(CN(CCCN(C)C)Cc2cnc(N(C)C)nc2)o1.O=C(O)CC(O)(CC(=O)O)C(=O)O

A)
-12.16
19.31
-72.7
8.611
-2.664

Look up Percent Effect for the entries below, preserving their order.
1. Cc1ccc(N2C[C@H]3CCN(Cc4ccncc4)C[C@H]3C2)nn1.O=C(O)C(F)(F)F
2. Cc1nc(C)c(C(=O)N2CCCC2(C)C(=O)NC2CCCC2)s1 (stereo not given)

A)
-19.26
-2.69

----------
Test system: Mycobacterium tuberculosis
Test: Cornell - Phenotypic assay to identify agents that inhibit growth of Mycobacterium tuberculosis
Assay type: functional
Design: scale not given: direction of the effect not stated beside the values
Conditions: 10 mM as filed; unlikely as a test dose
Hit rate of the full screen: of about 53,000 compounds, about 900 (1.7%) showed an effect of 50% or more. What follows is part of a selection rich in strong results, with near analogues and random picks from the rest.
Task for the reader: assign each of the following molecules its reported Percent Effect.
State the result as a value with its unit after it.

c1ccc(OCc2nc(CNCCn3cccn3)cs2)cc1 : -6.946%
O=C(C[C@@H]1COC[C@H]2CN(Cc3ccc(F)cc3)C[C@@H]12)N1CCCC1.O=C(O)C(F)(F)F : -5.358%
Cl.Cn1ccnc1CNC(=O)c1ccnc(C2CCNCC2)c1 : -5.824%
CN(C)C1COC2(CCN(Cc3ccncc3)CC2)C1 (stereo not drawn) : 9.126%
Cc1nn(C)c2c(=O)n(CC(=O)NCCC(C)C)ccc12 : 2.416%
CCn1c(N)nc2cc(C(=O)N(C)Cc3cc(C(C)(C)C)n[nH]3)cnc21 : 12.68%
Cc1nc(N2CCCOC(Cn3cccn3)C2)c2sccc2n1 (stereo not drawn) : 26.84%
CC1=C(C#N)C(=O)NC(=O)/C1=C\c1c(C)nn(-c2ccc(C)cc2)c1O : 24.62%

Look up Percent Effect for the entries below, preserving their order.
1. Cc1cccc(CN2C[C@@H]3COC[C@]3(CNC(=O)C3CCC3)C2)c1.O=C(O)C(F)(F)F
2. Cc1cc(CC(=O)NC2CCCN(Cc3ccccc3)C2=O)n[nH]1 (stereo not drawn)
3. Cc1ccc(OCc2nc(CNCCn3cccn3)cs2)cc1
4. Cc1cnn(CCNCc2ccc(OCc3csc(C)n3)cc2)c1

A)
1: 0.1331%; 2: -5.186%; 3: 44.09%; 4: 22%

Look up Percent Effect for the entries below, preserving their order.
1. Cc1nn(C)c2c(=O)n(CC(=O)NCc3ccc(N(C)C)cc3)ccc12
2. O=c1oc(-c2ccc(F)cc2)nn1CN1CCSCC1
3. CCOC1CC2(CCN(c3cnccn3)CC2)c2ccccc21 (stereo not drawn)

A)
1. 96.11%
2. -31.85%
3. 32.32%

Look up Percent Effect for the entries below, preserving their order.
1. Cc1cnn(CCCNCc2csc(COc3ccccc3)n2)c1
2. CN(C)CCOC1CC2(CCN(c3cnccn3)CC2)c2ccccc21.O=C(O)C(F)(F)F (stereo not drawn)
3. CN(C)C(=O)c1cnc2n1CCN(Cc1ccsc1)C2.O=C(O)C(F)(F)F
4. Cl.O=C(NC1CCCC1)c1ccnc(C2CCNCC2)c1
5. Cc1ccc(C(=O)CC(SC2CCCCC2)C(=O)O)cc1 (stereo not drawn)

A)
1: 86.59%; 2: -38.38%; 3: 1.254%; 4: 56.56%; 5: 44.78%

Look up Percent Effect for the entries below, preserving their order.
1. Cc1cnn(CCNCc2csc(C)n2)c1
2. COc1ccc(CN2CCC3(CCCN(C)C3=O)C2)c(OC)c1C (stereo not drawn)
3. NC(=O)C1CCN(C(=O)CCSCc2ccc(Cl)c(Cl)c2)CC1

A)
1: 2.389%; 2: 52.12%; 3: 42.57%

----------
System: Mycobacterium tuberculosis
Assay: Cornell - Phenotypic assay to identify agents that inhibit growth of Mycobacterium tuberculosis
Assay type: functional
Set-up: scale not given: direction of the effect not stated beside the values
Settings: 10 mM as filed; unlikely as a test dose
Screen size: about 53,000 compounds; about 900 (1.7%) showed an effect of 50% or more. What follows is part of a selection rich in strong results, with near analogues and random picks from the rest.
Measurement Label: Percent Effect (%)
Give bare numbers, in %.

Known Percent Effect results, listed for orientation:
C=Cn1ncc(CN2C[C@@H]3CCCN3C[C@@H]2CCSC)c1C : -11.11
Cc1cc(C(N)=O)ccc1NC(=O)c1nc(N2CCCC2)ncc1Cl : 105.8
Cc1cc(CN(C)C(=O)C2CC(=O)N(Cc3cccnc3)C2)on1 (stereo unspecified) : 14.11

Look up Percent Effect for the entries below, preserving their order.
1. COC(=O)CCNC(=O)c1ccoc1CN1c2ccccc2CC1C (stereo unspecified)
2. Cc1cc2nccc(C3CCN(C(=O)c4ccccc4F)CC3)n2n1

A)
59.33
6.226
